Hi there, I'd appreciate the recorded kd for every entry that follows.
- testedSystem: T1, hT40 (T441, SEQ ID NO: 1) (Homo sapiens, UniProt P10636)
- T1 construct: Full length tau (hT40)
- T1 sequence (P10636 1-441 isoform P10636-8): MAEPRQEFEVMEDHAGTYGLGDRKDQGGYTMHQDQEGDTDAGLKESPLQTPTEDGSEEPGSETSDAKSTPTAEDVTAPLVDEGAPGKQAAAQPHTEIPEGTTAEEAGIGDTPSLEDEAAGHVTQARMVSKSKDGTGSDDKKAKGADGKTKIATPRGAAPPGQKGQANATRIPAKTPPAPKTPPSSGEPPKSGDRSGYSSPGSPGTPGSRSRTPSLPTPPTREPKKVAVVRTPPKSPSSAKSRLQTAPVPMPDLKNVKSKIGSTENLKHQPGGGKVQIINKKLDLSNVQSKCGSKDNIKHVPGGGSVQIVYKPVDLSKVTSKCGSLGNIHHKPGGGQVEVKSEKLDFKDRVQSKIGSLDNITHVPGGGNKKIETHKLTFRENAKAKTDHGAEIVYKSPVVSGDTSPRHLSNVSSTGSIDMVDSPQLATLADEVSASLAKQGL
- assayProcedure: Biacore X100 SPR kinetics of scAbs for hT40
- Type: binding
- conditionParameters: Table 25; '3a' and '3b' scAbs, hT40
// note: answer is a bare numeric in s⁻¹

kd for 3aD3: N-terminal anti-tau clone, Table 6; SEQ ID NO: 422 (protein, 3aD3 amino acid sequence) QVQLQESGPSLVKPSQTLSLTCTVSGFSLTSNGVGWVRRAPGKVPEWVGDISSGGKVYGHPALKSRLSITRDTSKSQVSLSVSSVTSEDTAVYYCVRCRDGGVSYGYDSDYWGPGLLVTVSSEGKSSGASGESKVDDQAVVTQPSSVSKSLGQSVSITCSGSSSNVGYGDYVGWFQQVPGSAPKLLIYGVTERASGVPDRFSGSRSGNTATLTISSIQAEDEADYYCASYDDSSGGIFGSGTRLTVLG ?
0.01038

Next record, please: 3aG3: N-terminal anti-tau clone, Table 6; SEQ ID NO: 424 (protein, 3aG3 amino acid sequence) QVQLQESGPSLVKPSQTLSLTCTVSGFSLSSNGVGWVRQAPGKVPEWVGDISSSGKAYANPALKSRLSITRDTAKTQVFLSLSSVTTEDTAVYYCVRCRDGGVSYGYDIDYWGPGLLVTVSSEGKSSGASGESKVDDQAVLTQPPSVSGSPGQRVSITCSGSSSNIGGGNYLSWFQQVPGSAPKLLIYGATSRASGVPDRFSGSRSGNTATLTISSLQAEDEADYYCASFDTSSGGIFGAGTRLTVLG
0.0003869

These measurements were taken from patent US20250355001A1.
